// data source = ChEMBL document CHEMBL3407416

Test system: Mus musculus
Assay: Intrinsic clearance in mouse at 5 umol/kg, iv administered as bolus dose in 20 to 30% DMA in PBS
Assay type: ADME, organism-based
Settings: in vivo
# note: boundary value 60 mL/min/kg maps to False; clearance below it maps to True

Example cases with answers are listed next.
>>> classification("C[C@H](c1cc(C(=O)N(C)C)cc2c(=O)cc(N3CCOCC3)oc12)N(C)c1cc(F)cc(F)c1")
"True"
>>> classification("C[C@@H](Nc1ccc(F)c(F)c1)c1cc(C(=O)N(C)C)cc2c(=O)cc(N3CCOCC3)oc12")
"True"
>>> classification("C[C@@H](Nc1cc(F)cc(F)c1F)c1cc(C(=O)N(C)C)cc2c(=O)cc(N3CCOCC3)oc12")
"False"
>>> classification("C[C@@H](Nc1cc(F)cc(Cl)c1)c1cc(C(=O)N(C)C)cc2c(=O)cc(N3CCOCC3)oc12")
"False"
>>> classification("C[C@H]1CN(c2cc(=O)c3cc(C(=O)N(C)C)cc([C@@H](C)Nc4cc(F)cc(F)c4)c3o2)CCO1")
"True"

Consider the compound C[C@@H](Nc1cccc(Cl)c1F)c1cc(C(=O)N(C)C)cc2c(=O)cc(N3CCOCC3)oc12 . Is its clearance strictly less than 60 mL/min/kg? False

Given C[C@@H](Nc1cc(F)cc(F)c1)c1cc(C(=O)N(C)C)cc2c(=O)cc(N3CCOCC3)oc12 , is recorded clearance strictly lower than 60 mL/min/kg? False

----------
Experiment: Oral bioavailability in mouse at 30 umol/kg administered as propylene glycol
Type: ADME, organism-based
Settings: in vivo
Readings of bioavailability for the listed compounds
// return numeric value only (unit: %, not printed)

>>> test_value("C[C@@H](Nc1cc(F)cc(F)c1F)c1cc(C(=O)N(C)C)cc2c(=O)cc(N3CCOCC3)oc12")
42

Name the recorded bioavailability for C[C@@H](Nc1ccc(F)c(F)c1)c1cc(C(=O)N(C)C)cc2c(=O)cc(N3CCOCC3)oc12 . 19

Consider the compound C[C@@H](Nc1cccc(Cl)c1F)c1cc(C(=O)N(C)C)cc2c(=O)cc(N3CCOCC3)oc12 and give its measured bioavailability. 19

Quick one: bioavailability for C[C@H](c1cc(C(=O)N(C)C)cc2c(=O)cc(N3CCOCC3)oc12)N(C)c1cc(F)cc(F)c1 ? 68

# input compound: C[C@H]1CN(c2cc(=O)c3cc(C(=O)N(C)C)cc([C@@H](C)Nc4cc(F)cc(F)c4)c3o2)CCO1 ; wanted: its bioavailability 50

I'd like to know its bioavailability. The compound in question is C[C@@H](Nc1cc(F)cc(F)c1)c1cc(C(=O)N(C)C)cc2c(=O)cc(N3CCOCC3)oc12 18

Need bioavailability of C[C@@H](Nc1cc(F)cc(Cl)c1)c1cc(C(=O)N(C)C)cc2c(=O)cc(N3CCOCC3)oc12 , thanks. 23

----------
Biological target: Phosphatidylinositol 4,5-bisphosphate 3-kinase catalytic subunit beta isoform (Homo sapiens)
Sequence (P42338 whole entry, canonical isoform): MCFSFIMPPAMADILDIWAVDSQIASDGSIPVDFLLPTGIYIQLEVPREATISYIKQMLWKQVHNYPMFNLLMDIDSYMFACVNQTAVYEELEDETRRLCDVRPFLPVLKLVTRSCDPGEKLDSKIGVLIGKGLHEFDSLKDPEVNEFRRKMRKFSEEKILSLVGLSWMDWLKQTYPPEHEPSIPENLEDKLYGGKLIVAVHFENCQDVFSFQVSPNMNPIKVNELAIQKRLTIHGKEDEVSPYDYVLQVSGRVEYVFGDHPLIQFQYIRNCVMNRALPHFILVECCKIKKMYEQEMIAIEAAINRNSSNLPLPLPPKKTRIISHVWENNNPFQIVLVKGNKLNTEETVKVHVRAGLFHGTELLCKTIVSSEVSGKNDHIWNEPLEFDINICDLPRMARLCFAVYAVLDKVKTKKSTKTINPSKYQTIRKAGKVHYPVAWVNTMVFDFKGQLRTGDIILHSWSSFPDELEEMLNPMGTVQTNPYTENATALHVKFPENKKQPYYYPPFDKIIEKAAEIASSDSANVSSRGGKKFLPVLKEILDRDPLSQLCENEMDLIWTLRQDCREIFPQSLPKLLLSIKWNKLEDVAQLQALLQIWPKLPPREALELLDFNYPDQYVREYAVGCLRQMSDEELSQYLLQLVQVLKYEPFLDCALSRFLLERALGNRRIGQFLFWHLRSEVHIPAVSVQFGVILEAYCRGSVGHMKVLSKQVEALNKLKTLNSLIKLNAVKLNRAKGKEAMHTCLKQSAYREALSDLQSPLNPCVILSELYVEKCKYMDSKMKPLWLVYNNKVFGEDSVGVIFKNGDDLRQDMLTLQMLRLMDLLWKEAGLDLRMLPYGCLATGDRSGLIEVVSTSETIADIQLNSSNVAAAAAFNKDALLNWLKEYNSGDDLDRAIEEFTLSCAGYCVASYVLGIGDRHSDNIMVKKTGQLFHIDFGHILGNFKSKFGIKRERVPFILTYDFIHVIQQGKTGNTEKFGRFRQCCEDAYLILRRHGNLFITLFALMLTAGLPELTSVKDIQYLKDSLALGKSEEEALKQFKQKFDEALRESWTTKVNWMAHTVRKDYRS
Experiment: Inhibition of human recombinant PI3Kbeta using PIP2 by Kinase-Glo Plus assay
QUANTITY: IC50

>>> test_value("CC(Nc1cc(F)cc(F)c1)c1cc(C(=O)N2CCC(O)CC2)cc2c(=O)cc(N3CCOCC3)oc12 (racemic)")
"11 nM"
>>> test_value("C[C@H](Nc1cc(F)cc(F)c1)c1cc(C(=O)N(C)C)cc2c(=O)cc(N3CCO[C@@H](C)C3)oc12")
"9 nM"
>>> test_value("CC(Nc1cccc(Cl)c1)c1cc(C(=O)N(C)C)cc2c(=O)cc(N3CCOCC3)oc12 (racemic)")
"10 nM"
>>> test_value("C[C@@H](Nc1cccc(Cl)c1F)c1cc(C(=O)N(C)C)cc2c(=O)cc(N3CCOCC3)oc12")
"5 nM"
>>> test_value("COCCNC(=O)c1cc(C(C)Nc2cc(F)cc(F)c2)c2oc(N3CCOCC3)cc(=O)c2c1 (racemic)")
"9 nM"

Name the reported IC50 value associated with the compound C[C@@H](Nc1cc(F)cc(F)c1F)c1cc(C(=O)N(C)C)cc2c(=O)cc(N3CCOCC3)oc12 8 nM

Query: IC50; subject: CC(Nc1cc(F)cc(F)c1)c1cc(C(=O)N2CCOCC2)cc2c(=O)cc(N3CCOCC3)oc12 (racemic) 11 nM

----------
Listed next: entries and their corresponding clearance.
Tested on: Canis familiaris
Assay: Intrinsic clearance in dog at 5 umol/kg, iv administered as bolus dose in 20 to 30% DMA in PBS
Assay type: ADME, organism-based, Canis lupus familiaris
Conditions: in vivo
Report as a plain number; the unit mL/min/kg is understood.

Look up clearance for this molecule: C[C@H](c1cc(C(=O)N(C)C)cc2c(=O)cc(N3CCOCC3)oc12)N(C)c1cc(F)cc(F)c1 17

Requested read-out: clearance. Entry: C[C@@H](Nc1cc(F)cc(F)c1)c1cc(C(=O)N(C)C)cc2c(=O)cc(N3CCOCC3)oc12 11

I have this molecule here, C[C@@H](Nc1cc(F)cc(F)c1F)c1cc(C(=O)N(C)C)cc2c(=O)cc(N3CCOCC3)oc12 , and I need its recorded clearance. 16

Name the reported clearance value associated with the molecule C[C@H]1CN(c2cc(=O)c3cc(C(=O)N(C)C)cc([C@@H](C)Nc4cc(F)cc(F)c4)c3o2)CCO1 15

----------
Experiment: AUC in mouse at 30 umol/kg, po administered as propylene glycol
Format: ADME, organism-based
Settings: plasma
# if value of AUC reaches 0.9 µM·h, tag Met; if it stays below, tag Not met

>>> classification("C[C@H](c1cc(C(=O)N(C)C)cc2c(=O)cc(N3CCOCC3)oc12)N(C)c1cc(F)cc(F)c1")
"Met"
>>> classification("C[C@H](c1cc(C(=O)N2CCC(O)CC2)cc2c(=O)cc(N3CCOCC3)oc12)N(C)c1cc(F)cc(F)c1")
"Not met"
>>> classification("C[C@@H](Nc1cc(F)cc(Cl)c1)c1cc(C(=O)N(C)C)cc2c(=O)cc(N3CCOCC3)oc12")
"Not met"
>>> classification("C[C@@H](Nc1ccc(F)c(F)c1)c1cc(C(=O)N(C)C)cc2c(=O)cc(N3CCOCC3)oc12")
"Not met"

For this compound, is measured AUC 0.9 µM·h or higher? C[C@@H](Nc1cc(F)cc(F)c1)c1cc(C(=O)N(C)C)cc2c(=O)cc(N3CCOCC3)oc12 Met

Has C[C@H](c1cc(C(=O)N(C)CCO)cc2c(=O)cc(N3CCOCC3)oc12)N(C)c1cc(F)cc(F)c1 a recorded AUC greater than or equal to 0.9 µM·h? Not met

# bool: AUC of C[C@@H](Nc1cc(F)cc(F)c1F)c1cc(C(=O)N(C)C)cc2c(=O)cc(N3CCOCC3)oc12 >= 0.9 µM·h Met

In plain terms: is recorded AUC at least 0.9 µM·h for C[C@H]1CN(c2cc(=O)c3cc(C(=O)N(C)C)cc([C@@H](C)Nc4cc(F)cc(F)c4)c3o2)CCO1 ? Met

----------
Molecular target: Phosphatidylinositol 4,5-bisphosphate 3-kinase catalytic subunit gamma isoform (Homo sapiens)
Sequence (P48736 whole entry, canonical isoform): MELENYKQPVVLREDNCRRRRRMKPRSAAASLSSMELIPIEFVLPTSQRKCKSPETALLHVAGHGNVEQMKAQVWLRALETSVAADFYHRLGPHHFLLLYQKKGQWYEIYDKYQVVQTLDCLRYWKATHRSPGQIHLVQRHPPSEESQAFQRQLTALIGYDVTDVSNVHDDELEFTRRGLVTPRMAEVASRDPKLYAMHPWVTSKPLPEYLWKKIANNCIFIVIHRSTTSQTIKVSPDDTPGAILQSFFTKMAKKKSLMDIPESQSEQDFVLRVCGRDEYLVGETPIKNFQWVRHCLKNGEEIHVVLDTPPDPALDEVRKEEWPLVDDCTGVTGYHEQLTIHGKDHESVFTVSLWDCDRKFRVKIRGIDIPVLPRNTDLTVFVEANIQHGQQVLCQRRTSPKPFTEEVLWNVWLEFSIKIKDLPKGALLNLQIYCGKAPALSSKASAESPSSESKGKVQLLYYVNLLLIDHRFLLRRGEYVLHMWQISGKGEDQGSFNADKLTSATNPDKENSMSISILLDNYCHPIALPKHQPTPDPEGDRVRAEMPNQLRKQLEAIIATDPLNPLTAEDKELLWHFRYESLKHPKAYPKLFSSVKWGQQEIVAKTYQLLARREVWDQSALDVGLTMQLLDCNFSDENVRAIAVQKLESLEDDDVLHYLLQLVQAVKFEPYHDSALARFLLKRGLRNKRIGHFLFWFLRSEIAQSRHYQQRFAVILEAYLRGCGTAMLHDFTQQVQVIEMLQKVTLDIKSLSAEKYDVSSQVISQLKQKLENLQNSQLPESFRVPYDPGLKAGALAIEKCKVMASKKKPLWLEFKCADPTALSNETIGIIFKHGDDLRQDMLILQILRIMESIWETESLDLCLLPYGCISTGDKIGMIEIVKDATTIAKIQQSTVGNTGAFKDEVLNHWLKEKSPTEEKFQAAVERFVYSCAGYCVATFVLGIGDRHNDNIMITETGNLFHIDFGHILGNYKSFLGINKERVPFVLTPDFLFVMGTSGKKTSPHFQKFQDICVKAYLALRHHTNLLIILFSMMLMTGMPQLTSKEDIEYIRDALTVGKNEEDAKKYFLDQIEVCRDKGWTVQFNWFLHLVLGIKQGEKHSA
Assay: Inhibition of human recombinant PI3Kgamma using PIP2 by Kinase-Glo Plus assay
Here the recorded IC50 is given for each entry.
Answer as a quantity: numeral, then unit.

Completed entries (count: 6):
>>> test_value("CC(Nc1cc(F)cc(F)c1)c1cc(C(=O)N(C)CCO)cc2c(=O)cc(N3CCOCC3)oc12 (racemic)")
"530 nM"
>>> test_value("CC(Nc1cccc(F)c1)c1cc(C(=O)N(C)C)cc2c(=O)cc(N3CCOCC3)oc12 (racemic)")
"2600 nM"
>>> test_value("Cc1cc(F)cc(NC(C)c2cc(C(=O)N(C)C)cc3c(=O)cc(N4CCOCC4)oc23)c1 (racemic)")
"2200 nM"
>>> test_value("CC(Nc1cc(F)cc(F)c1)c1cc(C(=O)N2CCCCC2)cc2c(=O)cc(N3CCOCC3)oc12 (racemic)")
"1000 nM"
>>> test_value("C[C@@H](Nc1cc(F)cc(F)c1F)c1cc(C(=O)N(C)C)cc2c(=O)cc(N3CCOCC3)oc12")
"1500 nM"
>>> test_value("CC(Nc1cc(F)cc(F)c1)c1cc(C(=O)N2CCOCC2)cc2c(=O)cc(N3CCOCC3)oc12 (racemic)")
"2400 nM"

Which IC50 is listed for COCCN(C)C(=O)c1cc(C(C)Nc2cc(F)cc(F)c2)c2oc(N3CCOCC3)cc(=O)c2c1 (racemic) ? 2600 nM

Can you look up the measured IC50 of C[C@H](c1cc(C(=O)N(C)C)cc2c(=O)cc(N3CCOCC3)oc12)N(C)c1cc(F)cc(F)c1 for me? 3500 nM

Would you mind telling me what IC50 value was observed for COCCNC(=O)c1cc(C(C)Nc2cc(F)cc(F)c2)c2oc(N3CCOCC3)cc(=O)c2c1 (racemic) ? 520 nM

Looking for the measured IC50 of C[C@H](Nc1cc(F)cc(F)c1)c1cc(C(=O)N(C)C)cc2c(=O)cc(N3CCO[C@@H](C)C3)oc12 , can you help? 2900 nM

Suppose we examine the compound C[C@@H](Nc1cc(F)c(F)c(F)c1)c1cc(C(=O)N(C)C)cc2c(=O)cc(N3CCOCC3)oc12 ; what IC50 value has been reported? 1400 nM

For the compound shown here, CC(Nc1cc(Cl)cc(Cl)c1)c1cc(C(=O)N(C)C)cc2c(=O)cc(N3CCOCC3)oc12 (racemic) , give the reported IC50. 630 nM

# input compound: CC(Nc1cc(F)cc(F)c1)c1cc(C(=O)N2CCCC2)cc2c(=O)cc(N3CCOCC3)oc12 (racemic) ; wanted: its IC50 700 nM

Consider the compound shown here: COc1cc(F)cc(NC(C)c2cc(C(=O)N(C)C)cc3c(=O)cc(N4CCOCC4)oc23)c1 (racemic) What is its recorded IC50? 1600 nM
